From: patent US7026443

Molecular target: HLA-A*0301 (human)
Experiment: competition with 125I-labeled standard peptide for purified HLA, gel filtration
For each entry below, report its binding affinity ratio (IC50 of standard peptide / IC50 of test peptide) value.
Answer field: number only, no words.

Complete the entry with binding affinity ratio (IC50 of standard peptide / IC50 of test peptide) for ISLNSGQKK (modifications not checked) [HPV18 E1 position 116 peptide …]
0.0003

Complete the entry with binding affinity ratio (IC50 of standard peptide / IC50 of test peptide) for ALLRYKCGK (modifications not checked) [HPV18 E1 position 284 peptide …]
0.09

Complete the entry with binding affinity ratio (IC50 of standard peptide / IC50 of test peptide) for GLSFTDLVR (modifications not checked) [HPV18 E1 position 223 peptide …]
0.0009

Complete the entry with binding affinity ratio (IC50 of standard peptide / IC50 of test peptide) for IAQLKDLLK (modifications not checked) [HPV18 E1 position 198 peptide …]
0.0003

Complete the entry with binding affinity ratio (IC50 of standard peptide / IC50 of test peptide) for CATMCKHYR (modifications not checked) [HPV18 E1 position 412 peptide …]
0.0012

Complete the entry with binding affinity ratio (IC50 of standard peptide / IC50 of test peptide) for GVLILALLR (modifications not checked) [HPV18 E1 position 279 peptide …]
0.0058

Complete the entry with binding affinity ratio (IC50 of standard peptide / IC50 of test peptide) for FITFLGALK (modifications not checked) [HPV18 E1 position 460 peptide …]
0.032
